system: SK-OV-3 ovarian; assay: NCI tumour cell line growth inhibition, 48 h
MEASUREMENT_KIND: TGI

// below: answered compounds
CC(C)(C)OC(=O)NNC(=O)C1Cc2ccccc2OC1=O (stereo not drawn) | > 100 µM
C/C(=C1/N=C(c2ccccc2)OC1=O)c1ccc(C)cc1 | > 100 µM
CC(C)(Cl)C(Br)CCC(CBr)=C(Cl)CCl (mixture of isomers) | > 8.72 µM
Cc1ccc(/C=N/Nc2cc(C)c3ccccc3n2)s1 | 43.2 µM
CC(C)[C@](O)(C(=O)OCC1=CC[N+]2([O-])CC[C@@H](O)[C@@H]12)[C@H](C)O (stereo partly drawn) | > 10000 µM

Value sought for every listed compound: TGI.
1. Cc1cc(S(=O)(=O)Nc2nc3ccccc3[nH]2)c(S)cc1Cl
2. CN(C)CCNC(=O)c1cccc2ccc(-c3cccnc3)nc12
3. O=C1N(CN2CCOCC2)CN(CN2CCOCC2)C(=O)N1Cc1ccc(-c2ccc(CN3C(=O)N(CN4CCOCC4)CN(CN4CCOCC4)C3=O)cc2)cc1

Resp:
1: > 100 µM; 2: 36.9 µM; 3: > 100 µM

---

tested on: HCT-15 colon; test: NCI tumour cell line growth inhibition, 48 h
MEASUREMENT_KIND: log10 of TGI (log10 of the value in µM)
Could you please treat all values as log10 of TGI in µM?

// below: answered compounds
COc1cc(OC)cc(-c2ccc(-c3ccc(C(=N)N)s3)s2)c1 | 0.00
CN(C)Cc1cc(C(=O)/C=C/c2ccc(Br)cc2)cc(CN(C)C)c1O | 1.40
CN(C)/N=C1\C=C2CC[C@H](O[Si](C)(C)C(C)(C)C)[C@@]2(C)CC1 | 1.52
O=S(=O)(CC#CCCCOCC#Cc1ccccc1C#CCS(=O)(=O)c1ccccc1)c1ccccc1 | 1.66
CC(C)(C)OC(=O)N1CC(Cn2cc(C(F)(F)F)c3c(Cl)ncnc32)C1 | 0.64

Value sought for every listed compound: log10 of TGI.
1. O=C(N[C@@H]1C=CCC[C@@H]1c1ccccc1)OCc1ccccc1
2. COc1ccc2c(O)c(/C=C3\N=Nc4ncccc43)oc2c1C[C@H]1CCNC[C@H]1F
3. O=C1N[C@H]2C(=O)c3c(Cl)sc(Cl)c3[C@H]2O1

Resp:
1.58
1.09
1.22

Value sought for every listed compound: log10 of TGI.
1. [C-]#[O+].[C-]#[O+].[Ir].[O-]c1ccc2ccccc2c1N=Nc1ccccc1
2. C[n+]1c2cc(N)ccc2cc2ccc(N)cc21 (tested in a mixture with another compound)

Resp:
1: 1.30; 2: 0.67

---

test system: SF-295 CNS; test: NCI tumour cell line growth inhibition, 48 h
MEASUREMENT_KIND: TGI

// below: answered compounds
COc1cc(/C=C2\N=C(c3ccccc3)N(c3nc4cc(C)c(C)cc4s3)C2=O)cc(OC)c1OC | > 100 µM
C=CCC(N[C@@H](CO)c1ccccc1)c1ccccn1 (stereo not given in full) | > 100 µM
N#CC(c1ccccc1)N(CCc1ccccc1)C(=O)c1ccccc1 (stereo not given) | > 100 µM
Cc1cccc(Cl)c1NC(N)=S | > 100 µM
O=C1c2ccccc2C(=O)c2c(NC(=O)C(Cl)CCl)cccc21 (stereo not given) | > 62.1 µM

Value sought for every listed compound: TGI.
1. COc1ccc2[nH]c3c([N+](=O)[O-])ccc(Cl)c3c(=O)c2c1
2. CN(C(=O)[C@@H](NC(=O)OC(C)(C)C)c1ccccc1)[C@H]1CCCC[C@@H]1N1CCCC1
3. CCCCCCCCCCCCOC1C(CNCC2OC3OC(C)(C)OC3C2NC(=O)Nc2ccc(C(F)(F)F)cc2)OC2OC(C)(C)OC21 (stereo not given)
4. CCN1/C(=C/C=C/C=C/c2sc3ccccc3[n+]2CC)Sc2ccccc21
5. CN(C)CCNC(=O)c1cccc2ccc(-c3cccnc3)nc12

Resp:
1: > 100 µM; 2: > 100 µM; 3: 17.9 µM; 4: 0.508 µM; 5: 24.1 µM

---

tested on: NCI-H226 lung; test: NCI tumour cell line growth inhibition, 48 h
MEASUREMENT_KIND: GI50

// below: answered compounds
O=C(Nc1ccc(Cl)cc1F)c1cc(F)ccc1O | 1.02 µM
C=CCC(N[C@@H](CO)c1ccccc1)c1ccccn1 (stereo partly drawn) | > 100 µM
COc1cc(CNc2nc3cc(N)cc(N)c3nc2-c2ccccc2)cc(OC)c1OC | 9.96 µM
C[C@@H]1[C@H]2[C@H](C=C3[C@@H]4CC[C@H]5Cc6nc7c(nc6C[C@]5(C)[C@H]4C[C@@H](O)[C@@]32C)C[C@@H]2CC[C@H]3C4=C[C@@H]5O[C@@]6(CC[C@](C)(CO)O6)[C@@H](C)[C@@]5(O)[C@@]4(C)[C@H](O)C[C@@H]3[C@@]2(C)C7)O[C@]12CCC(C)(C)O2 | 3.33 µM
Cc1cc(S(N)(=O)=O)c(S/C(=N\Nc2ccc([N+](=O)[O-])cc2)c2ccc(O)cc2)cc1Cl | 2.67 µM
COc1nc2c(cc1S(=O)(=O)c1ccccc1)CCc1c-2cnn1Cc1ccccc1 | 35.8 µM
N.N.N.N.N.N#N.[Cl-].[Os+7] | > 100 µM

Req: I have this compound here, Fc1c[c-]c(-c2ccccn2)c(F)c1.[CH3-].[Pt+2].c1ccc([PH+](c2ccccc2)c2ccccn2)cc1 , and I need its recorded GI50.
Resp: 1.73 µM

---

tested on: MOLT-4 leukemia; assay: NCI tumour cell line growth inhibition, 48 h
MEASUREMENT_KIND: GI50

CCN1CCC2(CC1)NC(=O)c1c(c3ccc(Cl)c(Cl)c3n1C)C2C#N (stereo not given) | 2.43 µM

Value sought for every listed compound: GI50.
1. COc1cc(CNc2nc3cc(N)cc(N)c3nc2-c2ccccc2)cc(OC)c1OC
2. COc1ccc(-c2nn(-c3ccc(NC(=O)Nc4ccc(Cl)c(Cl)c4)cc3)cc2-c2ccncc2)cc1Cl
3. CC(C)(C)CC(C)(C)N(CSc1ccc(Cl)cc1)CSc1ccc(Cl)cc1
4. Cc1cc(Nc2cc(CN3CCOCC3)c3nc(C)c(Cc4ccc(Cl)cc4F)n3n2)n[nH]1

Resp:
12.4 µM
1.89 µM
0.841 µM
1.59 µM

---

test system: SF-295 CNS; assay: NCI tumour cell line growth inhibition, 48 h
Would you kindly list TGI for each of these compounds?

CCN(CC)CCOc1ccc(N2Cc3ccccc3C2=O)cc1 | > 10 µM

Value sought for every listed compound: TGI.
1. COc1ccc(C(=O)Nc2ccc(S(=O)(=O)NCC(=O)O)cc2)cc1
2. O=S(Nc1ccccc1)c1ccc(-c2ccccc2)cc1 (stereo not given)
3. CC1C(/C=C/c2ccoc2)ON2CCCC12 (stereo not given)
4. COc1cc2c(cc1O)[C@H](C)C(c1ccccc1OC)O2 (stereo not given in full)
5. C[n+]1c2ccccc2c(C(=O)NC(CCCN=C(N)N)C(=O)O)c2ccccc21 (stereo not given)
6. CC(C)[C@](O)(C(=O)OCC1=CC[N+]2([O-])CC[C@@H](O)[C@@H]12)[C@H](C)O (stereo not given in full)
7. CC(C)=CCc1c(O)ccc2c1OC1c3ccc(O)c(CC=C(C)C)c3OCC21 (stereo not given)

Resp:
1: > 100 µM; 2: > 100 µM; 3: > 100 µM; 4: 22.9 µM; 5: > 100 µM; 6: > 10000 µM; 7: 24.3 µM

Value sought for every listed compound: TGI.
1. O=C(/C=c1\oc(=O)/c(=C/C(=O)c2ccc(Cl)cc2)oc1=O)c1ccc(Cl)cc1
2. COc1ccccc1-c1ccc2nc(NC(=O)Nc3cc(C(F)(F)F)cc(C(F)(F)F)c3)sc2c1

Resp:
1: > 100 µM; 2: 9.33 µM

---

system: MALME-3M melanoma; experiment: NCI tumour cell line growth inhibition, 48 h
MEASUREMENT_KIND: log10(TGI) (log10 of the value in µM)
Could you please treat all values as log10 of TGI in µM?

Value sought for every listed compound: log10(TGI).
1. Cc1cc(S(N)(=O)=O)c(S/C(=N\Nc2ccc([N+](=O)[O-])cc2)c2ccc(O)cc2)cc1Cl
2. CSC1=Nc2c(c(C)c(-c3ccccc3)n2CCCCl)C2=NC(=O)CN12
3. C[C@@H]1[C@H]2[C@H](C=C3[C@@H]4CC[C@H]5Cc6nc7c(nc6C[C@]5(C)[C@H]4C[C@@H](O)[C@@]32C)C[C@@H]2CC[C@H]3C4=C[C@@H]5O[C@@]6(CC[C@](C)(CO)O6)[C@@H](C)[C@@]5(O)[C@@]4(C)[C@H](O)C[C@@H]3[C@@]2(C)C7)O[C@]12CCC(C)(C)O2
4. CC(C)(C)OC(=O)N1CC(Cn2cc(C(F)(F)F)c3c(Cl)ncnc32)C1
5. COc1cc2cn3c4ccc(O)cc4nc(N)c3c2cc1OC
6. O=C(Nc1ccc(Cl)cc1F)c1cc(F)ccc1O
7. COc1ccc2c(O)c(/C=C3\N=Nc4ncccc43)oc2c1C[C@H]1CCNC[C@H]1F
8. C=C(CN(C)C)C(=O)c1ccc(C)cc1C

Resp:
1: 0.64; 2: 1.37; 3: 1.36; 4: 1.42; 5: 1.23; 6: 0.36; 7: 0.71; 8: 1.31

Data origin: PubChem BioAssay (NCI)
